system: D(1A) dopamine receptor (Homo sapiens) (UniProt P21728)
Sequence (P21728 whole entry, looked up): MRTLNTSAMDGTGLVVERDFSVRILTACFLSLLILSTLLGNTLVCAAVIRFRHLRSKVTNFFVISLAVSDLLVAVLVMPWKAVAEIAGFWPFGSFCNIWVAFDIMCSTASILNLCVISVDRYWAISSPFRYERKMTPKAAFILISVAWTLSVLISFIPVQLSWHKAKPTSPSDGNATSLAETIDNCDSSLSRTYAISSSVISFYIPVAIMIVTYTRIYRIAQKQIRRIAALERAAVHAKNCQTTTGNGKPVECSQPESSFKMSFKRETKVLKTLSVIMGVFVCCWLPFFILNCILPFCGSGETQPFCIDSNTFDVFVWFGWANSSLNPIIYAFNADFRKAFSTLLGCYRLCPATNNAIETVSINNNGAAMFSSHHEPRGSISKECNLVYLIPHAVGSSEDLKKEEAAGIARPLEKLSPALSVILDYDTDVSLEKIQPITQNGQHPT
protocol.description: D1 receptor agonism without dopamine, confirmation, mechanism study for D1 allosteric modulator project, cell-based, HEK293 D1, CRE-luciferase, secondary assay 1 (AID 646)
run.conditions: no dopamine, at 10 µM, stronger effect = higher value
The whole screen tested about 1,900 compounds, of which about 15 (0.8%) were called active. Only a sample is shown.
The following molecules are listed with their measured luminescence values.
assay.metric: luminescence

molecule | system | assay.metric | value.observed
c1ccc(-c2nnc3n2NC(c2ccc4c(c2)OCO4)S3)cc1 (centres undefined) | D(1A) dopamine receptor (Homo sapiens) (UniProt P21728) | luminescence | 1610
O=C(C1CCC1)N1CCc2cc(S(=O)(=O)NCc3cccnc3)ccc21 | D(1A) dopamine receptor (Homo sapiens) (UniProt P21728) | luminescence | 1680
COc1ccc(-c2nnco2)cc1OC | D(1A) dopamine receptor (Homo sapiens) (UniProt P21728) | luminescence | 1540
COc1nc(NCc2ccc(Cl)cc2)nc(OC)n1 | D(1A) dopamine receptor (Homo sapiens) (UniProt P21728) | luminescence | 1580

* * *

system: D(1A) dopamine receptor (Homo sapiens) (UniProt P21728)
protocol.description: D1 receptor agonism without dopamine, confirmation, mechanism study for D1 allosteric modulator project, cell-based, HEK293 D1, CRE-luciferase, secondary assay 1 (AID 646)
run.conditions: no dopamine, at 10 µM, stronger effect = higher value
Hit rate of the full screen: of about 1,900 compounds, about 15 (0.8%) were called active. Only a sample is shown.
The following molecules are listed with their measured luminescence values.

molecule | system | luminescence
Cc1cc(C)c2c(n1)nn1c(-n3ccnc3)cc(C)nc21 | D(1A) dopamine receptor (Homo sapiens) (UniProt P21728) | 1660
O=c1cc(-c2ccccc2)nc(N2CCCCC2)[nH]1 | D(1A) dopamine receptor (Homo sapiens) (UniProt P21728) | 1600
CCNc1nc(NCC)nc(N(C)n2cnnc2)n1 | D(1A) dopamine receptor (Homo sapiens) (UniProt P21728) | 1760
CCOc1ccc2[nH]c(=O)c(C(c3nnnn3CCOC)N3CCOCC3)cc2c1 (centres undefined) | D(1A) dopamine receptor (Homo sapiens) (UniProt P21728) | 1550
CCc1cc(=O)oc2cc(OCC(=O)N3CCCc4ccccc43)ccc12 | D(1A) dopamine receptor (Homo sapiens) (UniProt P21728) | 1680
COc1ccc(CCNC(=O)CCn2c(=O)oc3ccccc32)cc1OC | D(1A) dopamine receptor (Homo sapiens) (UniProt P21728) | 1540
C/C(Cl)=C\Cn1c(Nc2cccc(C)c2)nc2c1c(=O)n(C)c(=O)n2C | D(1A) dopamine receptor (Homo sapiens) (UniProt P21728) | 1690
CC1CCN(c2nc3c(c(=O)[nH]c(=O)n3C)n2CCCc2ccccc2)CC1 | D(1A) dopamine receptor (Homo sapiens) (UniProt P21728) | 1410
CCOc1ccc(Cn2c(SCCCCC#N)nc3c2c(=O)n(C)c(=O)n3C)cc1OCC | D(1A) dopamine receptor (Homo sapiens) (UniProt P21728) | 1460
CCOc1cccc(-n2nnnc2-c2ccc(OC)cc2)c1 | D(1A) dopamine receptor (Homo sapiens) (UniProt P21728) | 1540
COc1ccc(NC(=O)C2CCCN(S(=O)(=O)c3cccc4cccnc34)C2)cc1OC (centres undefined) | D(1A) dopamine receptor (Homo sapiens) (UniProt P21728) | 1590
CC(C)n1c(C(O)c2ccccc2)nc2ccccc21 (centres undefined) | D(1A) dopamine receptor (Homo sapiens) (UniProt P21728) | 1600
CCC(=O)NC(=Nc1nc2ccccc2s1)NC(=O)CC | D(1A) dopamine receptor (Homo sapiens) (UniProt P21728) | 1420
CCCCc1c(O)nc2n(c1=O)CCS2 | D(1A) dopamine receptor (Homo sapiens) (UniProt P21728) | 1610
O=C(CSc1nnc2scc(-c3ccc(F)cc3)n12)NCc1ccco1 | D(1A) dopamine receptor (Homo sapiens) (UniProt P21728) | 1730
O=C(NCc1ccccn1)c1ccc2nc(-c3ccco3)c(-c3ccco3)nc2c1 | D(1A) dopamine receptor (Homo sapiens) (UniProt P21728) | 2040
CCn1c(=N)c(S(=O)(=O)c2ccc(F)cc2)cc2c(=O)n3ccccc3nc21 | D(1A) dopamine receptor (Homo sapiens) (UniProt P21728) | 1820
COc1ccc(Nc2cc(C)nc(-n3nc(C)cc3C)n2)cc1 | D(1A) dopamine receptor (Homo sapiens) (UniProt P21728) | 1750
Cn1c(/C(C#N)=C2/CCCCCN2)nc2ccccc21 | D(1A) dopamine receptor (Homo sapiens) (UniProt P21728) | 1800
COc1ncnc2c1N=C1CC(C)(C)CC(N)=C1S2 | D(1A) dopamine receptor (Homo sapiens) (UniProt P21728) | 1620
CC(=O)OC(C)C[N+](C)(C)C (centres undefined) | D(1A) dopamine receptor (Homo sapiens) (UniProt P21728) | 1390
CCCCSc1nc2c(c(=O)n1CC)SC(C)C2 (centres undefined) | D(1A) dopamine receptor (Homo sapiens) (UniProt P21728) | 1490
O=C(NCc1ccco1)c1cnn2c(C(F)(F)F)cc(-c3ccco3)nc12 | D(1A) dopamine receptor (Homo sapiens) (UniProt P21728) | 1560
CC1CCN(c2oc(-c3ccccc3F)nc2C#N)CC1 | D(1A) dopamine receptor (Homo sapiens) (UniProt P21728) | 1620
